Every entry's value here was drawn from patent US6593322B1.

target: human full-length ER-α (Homo sapiens, UniProt P03372); construct: expression vectors for human full-length ER-α or ER-β; assay: IL-6 production in U2OS osteosarcoma cells stably transfected with ER-α
Sequence (P03372 whole entry): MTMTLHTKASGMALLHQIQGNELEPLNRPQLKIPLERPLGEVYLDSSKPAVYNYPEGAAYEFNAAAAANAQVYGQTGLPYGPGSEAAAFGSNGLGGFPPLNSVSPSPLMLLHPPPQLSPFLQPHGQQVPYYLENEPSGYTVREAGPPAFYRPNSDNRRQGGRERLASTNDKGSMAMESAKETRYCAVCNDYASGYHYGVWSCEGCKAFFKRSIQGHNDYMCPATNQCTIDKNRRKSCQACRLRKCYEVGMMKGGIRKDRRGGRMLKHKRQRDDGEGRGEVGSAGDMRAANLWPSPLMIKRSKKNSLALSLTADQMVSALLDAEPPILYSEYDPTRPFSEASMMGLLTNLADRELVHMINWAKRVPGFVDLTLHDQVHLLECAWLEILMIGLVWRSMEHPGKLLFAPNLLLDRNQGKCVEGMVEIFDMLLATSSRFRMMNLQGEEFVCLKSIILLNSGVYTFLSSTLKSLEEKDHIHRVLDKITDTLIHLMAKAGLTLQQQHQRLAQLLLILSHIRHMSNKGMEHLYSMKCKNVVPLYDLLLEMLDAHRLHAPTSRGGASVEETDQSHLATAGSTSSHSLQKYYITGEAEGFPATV
MEASURED METRIC: IC50 (µM)

[I] Oc1ccc2c(c1)CCN(c1ccc(F)cc1)C2c1ccc(OCCN2CCCCC2)cc1 (stereo not shown) [Compound A, reference compound]
[II] Oc1ccc2c(c1)CCCN(c1ccc(F)cc1)C2Cc1ccc(OCCN2CCCCC2)cc1 (stereo not shown)
[III] Oc1ccc2c(c1)CCN(c1ccc(F)cc1)C2Cc1ccc(OCCN2CCCCC2)cc1 (stereo not shown)
Qu. Arrange the items listed above so that IC50 rises from first to last. Give your ranking as a list of the labels in the requested order.
Ans. I, III, II

* * *

target: human full-length ER-β (Homo sapiens); construct: expression vectors for human full-length ER-α or ER-β; expressed in transfected cells; assay: IL-6 production in U2OS osteosarcoma cells stably transfected with ER-β; type: cell-based
Sequence (Q92731 whole entry): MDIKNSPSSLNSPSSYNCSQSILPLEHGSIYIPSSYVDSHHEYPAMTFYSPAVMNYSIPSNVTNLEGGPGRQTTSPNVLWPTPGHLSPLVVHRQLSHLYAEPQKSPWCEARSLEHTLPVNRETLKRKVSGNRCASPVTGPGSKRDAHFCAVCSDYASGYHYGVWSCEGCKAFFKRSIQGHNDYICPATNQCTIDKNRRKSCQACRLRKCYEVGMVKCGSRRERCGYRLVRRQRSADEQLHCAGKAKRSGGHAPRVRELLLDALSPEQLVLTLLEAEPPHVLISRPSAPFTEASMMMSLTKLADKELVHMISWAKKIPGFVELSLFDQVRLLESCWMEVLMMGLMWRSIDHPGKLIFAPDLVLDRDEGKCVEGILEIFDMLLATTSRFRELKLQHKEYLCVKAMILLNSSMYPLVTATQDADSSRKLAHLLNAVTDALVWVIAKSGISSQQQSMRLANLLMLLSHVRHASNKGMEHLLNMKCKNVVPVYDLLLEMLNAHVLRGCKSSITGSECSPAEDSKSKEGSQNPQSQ
MEASURED METRIC: IC50 (nM)

1) Oc1ccc2c(c1)CCN(c1ccc(F)cc1)C2Cc1ccc(OCCN2CCCCC2)cc1 (stereo not shown) : 285

[A] Oc1ccc2c(c1)CCN(c1ccccc1)C2Cc1ccc(Br)cc1 (stereo not shown)
[B] Oc1ccc2c(c1)CCCN(c1ccc(F)cc1)C2Cc1ccc(OCCN2CCCCC2)cc1 (stereo not shown)
Qu. Param pair: A , B . Output: the one whose IC50 is numerically greater. Bench note: the answer is the label of the chosen record.
Ans. B
